These entries and their values trace back to paper PMC9482650.

system-under-test: T1, ARHGEF11, O15085
T1 sequence (O15085 42-136, limits assumed, looked up): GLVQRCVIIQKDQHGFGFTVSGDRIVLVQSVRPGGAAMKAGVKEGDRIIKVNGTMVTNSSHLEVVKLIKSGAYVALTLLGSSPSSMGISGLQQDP
assay-summary: holdup assay
Parameters: key: below the threshold = too weak to quantify, mostly under pKd 3.1 to 4
setup-conditions: plain residues with an end cap or a label only (N-terminal biotin on a linker: ado-ado)
Label fulfilled when pKd is at or above 4; anything below gets not fulfilled.

NVYGIESVKI [GRIA2, P42262]: not fulfilled

input: Does EDGESWEYQI [TRPV6, Q9H1D0] have a reported pKd of at least 4?
output: not fulfilled

input: Would you say TISFTQTSQF [SLC1A1, P43005] shows pKd at minimum 4?
output: not fulfilled

input: Reported pKd reaches at least 4 for GIKKITSTAL [RPS6KA3, P51812] ?
output: fulfilled
